Attribution: PubChem BioAssay (NCI)

system: COLO 205 colon; assay: NCI tumour cell line growth inhibition, 48 h; in the data active = GI50 below about 0.43 µM; inactive = the rest
Hi there, use one of these labels in your reply, thanks! Y (active), N (inactive)

Prompt: What is the recorded call for this molecule in the test? COc1cc(Nc2ncccc2C(=O)NCc2cn(Cc3cccc(Oc4ccccc4)c3)nn2)cc(OC)c1
Completion: N

Prompt: Test call for this molecule, please: O=C(Nc1ccc(Nc2ccncc2)cc1)c1ccc([N+](=O)[O-])cc1
Completion: N

Prompt: Just curious, what result did CC[As](CC)SC[C@H](C)C(=O)N1CCC[C@H]1C(=O)O get here?
Completion: Y

Prompt: Kindly provide the recorded test outcome for the following molecule: CN(C)CCNC(=O)c1cccc2ccc(-c3ccc(O)cc3)nc12
Completion: N

Prompt: Write down the call the test reported for this molecule. Item: N#Cc1c(NC(=O)NCc2ccccc2)sc2c1CCCCC2
Completion: N

Prompt: Hello, I am checking results. What call was entered for NC(=O)/C=C/C(=O)c1c(Cl)cccc1Cl ?
Completion: Y

Prompt: Recorded test call requested for CCN1CCN(C(=O)[C@@]2(C)CC[C@]3(C)CC[C@]4(C)C(=CC(=O)[C@@H]5[C@@]6(C)CC[C@H](OC7C[C@@H](O)[C@@H](O)C(C)O7)C(C)(C)[C@@H]6CC[C@]54C)[C@@H]3C2)CC1 (stereo partly drawn)
Completion: N

Prompt: Recorded test call requested for CC1=C(C(=O)Nc2ccc(F)c(Cl)c2)C(c2ccccc2O)NC(=S)N1 (stereo not drawn)
Completion: N

---

system: BT-549 breast; experiment: NCI tumour cell line growth inhibition, 48 h; in the data active means GI50 below about 0.43 µM; inactive means the rest
Outcome field: choose from active, inactive

Worked examples follow.
>  <SMILES>
Nc1nn2cc(F)cnc2c1C(=O)Nc1cncc(F)c1N1CCC(C(=O)N2CCN(C3COC3)CC2)CC1

>  <DISCRETE_LABEL>
active

$$$$
>  <SMILES>
COc1ccccc1/C=N\N/C(N)=N\N=C\c1ccccc1OC

>  <DISCRETE_LABEL>
inactive

$$$$

Prompt: Outcome logged for NC(=O)/C=C/C(=O)c1c(Cl)cccc1Cl in this assay:
Completion: inactive

Prompt: Write down the call the test reported for this compound. Item: COc1cccc(F)c1C(=O)c1cnc(NC2CCN(S(C)(=O)=O)CC2)nc1N
Completion: inactive

---

system: U251 CNS; assay: NCI tumour cell line growth inhibition, 48 h
OBSERVATION_TYPE: TGI

>  <MOLECULE>
CC1=C(C)CC2C(=O)N(c3cc(C(C)(C)C)ccc3C(C)(C)C)C(=O)C2C1 (configuration not stated)

>  <TGI>
> 100 µM

$$$$
>  <MOLECULE>
C[C@H]1[C@H]2[C@H]3CC[C@@H]4[C@@]5(C)CC[C@H](O)C(C)(C)[C@@H]5CC[C@@]4(C)[C@]3(C)C[C@H](O)[C@@]2(C)C[C@H]2O[C@]21C

>  <TGI>
33.7 µM

$$$$
>  <MOLECULE>
O=c1oc2ccc3ccccc3c2cc1-c1nc2ccccc2s1

>  <TGI>
> 100 µM

$$$$
>  <MOLECULE>
CC(C)(C)OC(=O)NC1CCCCC1NC(=O)C(=O)NC1CCCCC1NC(=O)OC(C)(C)C (configuration not stated)

>  <TGI>
> 100 µM

$$$$
>  <MOLECULE>
O=c1oc2ccccc2cc1-c1cc2ccccn2c1

>  <TGI>
> 100 µM

$$$$
>  <MOLECULE>
S=C(Nc1ccc(Cl)cc1)Nc1ccc(-c2nc3ccccc3s2)cc1

>  <TGI>
> 100 µM

$$$$
>  <MOLECULE>
COC(=O)c1c(O)ccc2c1c1c(n2Cc2cc(OC)cc(OC)c2)C(=O)c2ccccc2C1

>  <TGI>
> 100 µM

$$$$
>  <MOLECULE>
CCn1c(-c2ccccc2)cs/c1=N\C(P(=O)(O)O)P(=O)(O)O

>  <TGI>
> 100 µM

$$$$
>  <MOLECULE>
O=[N+]([O-])c1ccc(CN(CCCl)OCCCl)cc1

>  <TGI>
> 100 µM

$$$$
>  <MOLECULE>
CCCNC(=O)NNC(=O)c1c[nH]c2nc(C)ccc2c1=O

>  <TGI>
> 100 µM

$$$$

Prompt: Entry CC(=O)OC(OC(C)=O)c1ccc2ccc3cccc4ccc1c2c34 has what TGI?
Completion: 41.8 µM

Prompt: Quick one: TGI for NC(N)=NCCN1CC2CCC(CC2)C1 ?
Completion: > 100 µM
